- SYSTEM_UNDER_TEST: Neprilysin (Rattus norvegicus, UniProt P07861)
- Sequence (P07861 whole entry): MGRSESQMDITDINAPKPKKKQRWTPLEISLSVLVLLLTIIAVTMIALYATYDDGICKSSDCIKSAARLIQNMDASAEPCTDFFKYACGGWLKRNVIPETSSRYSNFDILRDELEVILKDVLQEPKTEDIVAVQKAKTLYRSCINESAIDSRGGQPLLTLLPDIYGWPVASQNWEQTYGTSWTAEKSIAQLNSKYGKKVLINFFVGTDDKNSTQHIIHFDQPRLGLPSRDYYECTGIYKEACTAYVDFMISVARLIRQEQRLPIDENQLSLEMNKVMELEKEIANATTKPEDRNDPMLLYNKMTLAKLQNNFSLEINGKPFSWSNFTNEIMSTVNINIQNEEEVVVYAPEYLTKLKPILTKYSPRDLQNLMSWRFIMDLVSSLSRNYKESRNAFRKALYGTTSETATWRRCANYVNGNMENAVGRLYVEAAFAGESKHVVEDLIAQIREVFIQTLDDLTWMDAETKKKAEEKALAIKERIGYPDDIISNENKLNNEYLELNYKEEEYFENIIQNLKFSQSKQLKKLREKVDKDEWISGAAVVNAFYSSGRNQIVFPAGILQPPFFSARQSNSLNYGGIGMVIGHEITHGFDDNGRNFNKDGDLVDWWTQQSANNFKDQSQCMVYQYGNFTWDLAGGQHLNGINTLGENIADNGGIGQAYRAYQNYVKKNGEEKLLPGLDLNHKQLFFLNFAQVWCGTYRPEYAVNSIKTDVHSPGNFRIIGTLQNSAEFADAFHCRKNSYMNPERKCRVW
OBSERVABLE: log10 of IC50 (log10 of the value in nM)

O=C(O)c1cc(NC(=O)C(CS)Cc2cccnc2)cs1 (configuration not stated) [NEP inhibitor, 6l]    1.11
CN(C)C(=O)c1ccnc(NC(=O)C(CS)Cc2ccccc2)c1 (configuration not stated) [NEP inhibitor, 6r]    0.70
O=C(Nc1ccccc1)c1ccnc(NC(=O)C(CS)Cc2ccccc2)c1 (configuration not stated) [NEP inhibitor, 6s]    2.40
O=C(O)c1csc(NC(=O)C(CS)Cc2ccccc2)n1 (configuration not stated) [NEP inhibitor, 6p]    0.95
O=C(Nc1ccn[nH]1)C(CS)Cc1ccccc1 (configuration not stated) [NEP inhibitor, 6q]    1.36
O=C(O)c1cncc(NC(=O)C(CS)Cc2ccccc2)c1 (configuration not stated) [NEP inhibitor, 6h]    0.70
CC(CS)C(=O)Nc1cncc(C(=O)O)c1 (configuration not stated) [NEP inhibitor, 6g]    1.78
